Test system: RAW-Dual (murine macrophage reporter line)
Assay: IRF reporter (Lucia luciferase) activity fold change vs agonist alone; higher = enhanced IRF activity
Conditions: modulator concentration 10 µM; agonist: LPS 0.1 ug/mL

{"compound": "Cc1ccc(-n2ncnc2-c2ccccc2C)cc1Cl", "assay_system": "RAW-Dual (murine macrophage reporter line)", "IRF reporter": 1.48}
{"compound": "O=C(O)CCC(=O)Nc1ccc(Br)cc1C(=O)c1ccc(Cl)cc1", "assay_system": "RAW-Dual (murine macrophage reporter line)", "IRF reporter": 1.31}
{"compound": "O=C(CSC1CC(=O)N(c2ccc(C(=O)O)cc2)C1=O)Nc1ccc(Cl)cc1 (stereo not given)", "assay_system": "RAW-Dual (murine macrophage reporter line)", "IRF reporter": 0.99}
{"compound": "CCCCOc1ccc(C(=O)Nc2cc(-c3nc4ccccc4o3)ccc2OC)cc1", "assay_system": "RAW-Dual (murine macrophage reporter line)", "IRF reporter": 1.06}
{"compound": "CCCOCCOC(=O)C1=C(C)NC2=C(C(=O)CCC2)C1c1ccc(F)c(F)c1 (stereo not given)", "assay_system": "RAW-Dual (murine macrophage reporter line)", "IRF reporter": 1.41}
{"compound": "O=C(NN=Cc1c(O)ccc2ccccc12)c1ccccc1", "assay_system": "RAW-Dual (murine macrophage reporter line)", "IRF reporter": 1.23}
{"compound": "CNc1nc(Nc2ccc(C)c(C)c2)c2nccnc2n1", "assay_system": "RAW-Dual (murine macrophage reporter line)", "IRF reporter": 1.01}
{"compound": "CC1CN(C2=NC(=O)C(=Cc3ccc(-c4ccccc4Cl)o3)S2)CC(C)O1 (stereo not given)", "assay_system": "RAW-Dual (murine macrophage reporter line)", "IRF reporter": 1.34}
{"compound": "CCOC(=O)N[C@@H]1CC[C@@H]2[C@@H](C1)C[C@H]1C(=O)O[C@H](C)[C@H]1[C@H]2/C=C/c1ccc(-c2cccc(F)c2)cn1", "assay_system": "RAW-Dual (murine macrophage reporter line)", "IRF reporter": 0.783}
{"compound": "CCOC(=O)N1CCN(C(=O)CSc2ccc(-c3ccccc3)nn2)CC1", "assay_system": "RAW-Dual (murine macrophage reporter line)", "IRF reporter": 0.96}
{"compound": "C=C(Br)Cn1c(COc2ccccc2)nc2ccccc21", "assay_system": "RAW-Dual (murine macrophage reporter line)", "IRF reporter": 1.19}
{"compound": "COc1ccc(NC(=O)CN2C(=O)c3ccccc3C2=O)c([N+](=O)[O-])c1", "assay_system": "RAW-Dual (murine macrophage reporter line)", "IRF reporter": 1.29}
{"compound": "COc1ccc(OC2CCN(C(=O)C3CCOC3)C2)nn1 (stereo not given)", "assay_system": "RAW-Dual (murine macrophage reporter line)", "IRF reporter": 1.12}
{"compound": "CC(=O)C1CCC2C3CC=C4CC(O)CCC4(C)C3CCC12C (stereo not given)", "assay_system": "RAW-Dual (murine macrophage reporter line)", "IRF reporter": 1.28}
{"compound": "CCOc1ccc2c(c1)C(c1ccccc1C(F)(F)F)CC(=O)N2 (stereo not given)", "assay_system": "RAW-Dual (murine macrophage reporter line)", "IRF reporter": 1.43}
{"compound": "O=C(CC(c1ccccc1)c1ccccc1)Nc1ccc(CC(=O)N2CCC(O)CC2)cc1", "assay_system": "RAW-Dual (murine macrophage reporter line)", "IRF reporter": 1.13}
{"compound": "CCOC(=O)C1=C(C)NC(C)=C(C(=O)OC)C1c1ccc(C)cc1 (stereo not given)", "assay_system": "RAW-Dual (murine macrophage reporter line)", "IRF reporter": 0.914}
{"compound": "N#CC1=C(NC(=S)NC(=O)c2ccccc2)c2ccccc2CC12CCCC2", "assay_system": "RAW-Dual (murine macrophage reporter line)", "IRF reporter": 1.63}
{"compound": "CCOc1ccccc1OCCCCOc1ccc(Cl)c(C)c1", "assay_system": "RAW-Dual (murine macrophage reporter line)", "IRF reporter": 1.03}
{"compound": "CCCCc1nc(C)c(CC(=S)N(C)C)c(=O)n1Cc1ccc(-c2ccccc2-c2nnn[nH]2)cc1", "assay_system": "RAW-Dual (murine macrophage reporter line)", "IRF reporter": 3.7}
{"compound": "O=C(C(c1ccccc1)c1ccccc1)N1CCC(n2nccn2)CC1", "assay_system": "RAW-Dual (murine macrophage reporter line)", "IRF reporter": 1.25}
{"compound": "COC(=O)c1ccc(C=NN=C2C(=O)Nc3ccccc32)cc1", "assay_system": "RAW-Dual (murine macrophage reporter line)", "IRF reporter": 1.09}
{"compound": "COc1ccc(S(=O)(=O)N(CC(=O)Nc2ccccc2Br)c2ccc(C)cc2)cc1OC", "assay_system": "RAW-Dual (murine macrophage reporter line)", "IRF reporter": 1.04}
{"compound": "Cc1ccc(-n2nc(C(C)(C)C)cc2NC(=O)Nc2ccc(OCCN3CCOCC3)c3ccccc23)cc1", "assay_system": "RAW-Dual (murine macrophage reporter line)", "IRF reporter": 0.741}
{"compound": "COc1ccc(C=CC(=O)Nc2ccc([N+](=O)[O-])cc2)cc1Br", "assay_system": "RAW-Dual (murine macrophage reporter line)", "IRF reporter": 1.28}
{"compound": "CCCCn1c(CNC(=O)c2cccs2)nc2ccccc21", "assay_system": "RAW-Dual (murine macrophage reporter line)", "IRF reporter": 1.15}
{"compound": "CC1CCc2c(N3CCC(O)CC3)c(F)cc3c(=O)c(C(=O)O)cn1c23 (stereo not given)", "assay_system": "RAW-Dual (murine macrophage reporter line)", "IRF reporter": 0.897}
{"compound": "CC1CC(C)CN(C(=O)CSc2nnc(Cc3ccccc3)o2)C1 (stereo not given)", "assay_system": "RAW-Dual (murine macrophage reporter line)", "IRF reporter": 0.944}
{"compound": "O=S(=O)(c1ccc(Cl)cc1)N1CCN(C2CC3CCC2C3)CC1 (stereo not given)", "assay_system": "RAW-Dual (murine macrophage reporter line)", "IRF reporter": 1.42}
{"compound": "CSCCC(NC(C)=O)C(=O)N1CCc2nc3ccc(Cl)cn3c(=O)c2C1 (stereo not given)", "assay_system": "RAW-Dual (murine macrophage reporter line)", "IRF reporter": 1.24}
{"compound": "c1ccc(Nc2nc(Nc3ccccc3)nc(N3CCCCC3)n2)cc1", "assay_system": "RAW-Dual (murine macrophage reporter line)", "IRF reporter": 1.53}
{"compound": "CCCNCC(O)COc1ccccc1C(=O)CCc1ccccc1 (stereo not given)", "assay_system": "RAW-Dual (murine macrophage reporter line)", "IRF reporter": 0.948}
{"compound": "NC(=O)c1ccccc1O", "assay_system": "RAW-Dual (murine macrophage reporter line)", "IRF reporter": 1.23}
{"compound": "OCC1OC(Oc2ccc(O)cc2)C(O)C(O)C1O (stereo not given)", "assay_system": "RAW-Dual (murine macrophage reporter line)", "IRF reporter": 1.14}
{"compound": "CN1CCN(C(CNC(=O)c2ccccc2Br)c2ccc(F)cc2)CC1 (stereo not given)", "assay_system": "RAW-Dual (murine macrophage reporter line)", "IRF reporter": 1.06}
{"compound": "Fc1ccccc1C=NNc1nc(-c2ccccc2)cc(-c2ccccc2)n1", "assay_system": "RAW-Dual (murine macrophage reporter line)", "IRF reporter": 1.14}
{"compound": "Cc1nnsc1C(=O)Nc1ccccc1C(F)(F)F", "assay_system": "RAW-Dual (murine macrophage reporter line)", "IRF reporter": 0.993}
{"compound": "CN(CCO)c1ccc2nonc2c1[N+](=O)[O-]", "assay_system": "RAW-Dual (murine macrophage reporter line)", "IRF reporter": 1.28}
{"compound": "O=C(c1cc2nc(-c3ccccc3)cc(-c3ccccc3)n2n1)N1CCCCCC1", "assay_system": "RAW-Dual (murine macrophage reporter line)", "IRF reporter": 1.37}
{"compound": "Cc1ccc(C(=O)c2cc(O)c(O)c([N+](=O)[O-])c2)cc1", "assay_system": "RAW-Dual (murine macrophage reporter line)", "IRF reporter": 0.917}
{"compound": "CC(=O)Nc1ccc(C(=O)Nc2ccccc2)c(NC(C)=O)c1", "assay_system": "RAW-Dual (murine macrophage reporter line)", "IRF reporter": 0.875}
{"compound": "O=c1[nH]c2ccccc2n1CCN1CCN(c2cccc(C(F)(F)F)c2)CC1", "assay_system": "RAW-Dual (murine macrophage reporter line)", "IRF reporter": 1.24}
{"compound": "COc1cc(C2C(C(=O)c3ccccc3)=C(O)C(=O)N2c2cccnc2)ccc1O (stereo not given)", "assay_system": "RAW-Dual (murine macrophage reporter line)", "IRF reporter": 0.849}
{"compound": "Cc1cc(C)c(NC(=O)COc2ccc(C)cc2C(C)(C)C)c(C)c1", "assay_system": "RAW-Dual (murine macrophage reporter line)", "IRF reporter": 1.14}
{"compound": "O=S(=O)(NCCOCc1ccccc1)c1ccccc1", "assay_system": "RAW-Dual (murine macrophage reporter line)", "IRF reporter": 1.19}
